# assay-target: carnitine palmitoyl transferase in heart mitochondria (Rattus norvegicus)
# Sequence (Q63704 1-772): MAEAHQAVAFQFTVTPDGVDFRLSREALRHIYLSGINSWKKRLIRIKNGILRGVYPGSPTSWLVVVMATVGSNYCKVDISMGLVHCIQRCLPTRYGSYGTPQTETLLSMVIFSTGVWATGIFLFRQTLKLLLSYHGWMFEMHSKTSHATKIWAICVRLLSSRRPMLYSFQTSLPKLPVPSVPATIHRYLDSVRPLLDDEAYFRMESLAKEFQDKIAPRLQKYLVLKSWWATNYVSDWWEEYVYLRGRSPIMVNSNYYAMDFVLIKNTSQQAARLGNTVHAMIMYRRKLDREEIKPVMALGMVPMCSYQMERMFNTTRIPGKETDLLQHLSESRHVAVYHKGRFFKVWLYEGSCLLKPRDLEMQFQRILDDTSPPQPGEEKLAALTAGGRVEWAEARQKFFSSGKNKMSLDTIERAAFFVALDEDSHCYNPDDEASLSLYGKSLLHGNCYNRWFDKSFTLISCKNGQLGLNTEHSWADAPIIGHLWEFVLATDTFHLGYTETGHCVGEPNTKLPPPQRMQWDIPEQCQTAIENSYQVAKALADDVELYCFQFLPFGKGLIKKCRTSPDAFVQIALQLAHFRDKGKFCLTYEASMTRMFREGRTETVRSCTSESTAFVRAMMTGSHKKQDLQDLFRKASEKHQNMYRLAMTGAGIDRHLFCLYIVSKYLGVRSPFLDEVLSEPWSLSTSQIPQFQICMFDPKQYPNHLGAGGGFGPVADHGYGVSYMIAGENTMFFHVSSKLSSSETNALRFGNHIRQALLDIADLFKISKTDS
observable: IC50 (µM)
Could you give me the number in µM? Just the number is fine.

Fill blank: measured IC50 of the compound CCOC(=O)C1(CCCCCCOc2ccc(Cl)cc2)CO1 (stereo not shown) [Compound A, reference compound] is ____.
0.25

====

# assay-target: carnitine palmitoyl transferase in liver mitochondria (Rattus norvegicus, UniProt P32198)
# Construct: from tissue; host or cells: rat liver mitochondria
# Sequence (P32198 whole entry): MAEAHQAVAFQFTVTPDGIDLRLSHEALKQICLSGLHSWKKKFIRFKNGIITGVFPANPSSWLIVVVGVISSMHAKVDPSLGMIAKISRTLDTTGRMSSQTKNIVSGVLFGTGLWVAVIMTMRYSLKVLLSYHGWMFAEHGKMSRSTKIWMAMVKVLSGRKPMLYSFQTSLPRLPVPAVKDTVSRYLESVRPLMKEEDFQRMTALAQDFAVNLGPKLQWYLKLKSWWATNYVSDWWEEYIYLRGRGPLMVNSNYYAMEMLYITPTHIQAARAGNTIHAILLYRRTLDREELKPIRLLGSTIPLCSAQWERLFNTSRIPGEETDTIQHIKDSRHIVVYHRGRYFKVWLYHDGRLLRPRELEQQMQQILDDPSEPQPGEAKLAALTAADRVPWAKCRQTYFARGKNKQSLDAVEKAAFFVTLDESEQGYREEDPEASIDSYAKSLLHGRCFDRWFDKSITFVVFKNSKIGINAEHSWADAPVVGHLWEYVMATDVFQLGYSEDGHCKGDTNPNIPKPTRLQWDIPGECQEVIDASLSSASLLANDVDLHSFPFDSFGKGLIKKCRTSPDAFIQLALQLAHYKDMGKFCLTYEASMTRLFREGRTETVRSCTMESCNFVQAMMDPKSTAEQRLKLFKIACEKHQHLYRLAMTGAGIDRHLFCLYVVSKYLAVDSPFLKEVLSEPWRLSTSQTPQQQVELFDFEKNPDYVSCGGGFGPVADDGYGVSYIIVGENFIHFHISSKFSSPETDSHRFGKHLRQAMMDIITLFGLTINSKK
# procedure-details: Inhibition of carnitine palmitoyl transferase activity in liver mitochondria
# Type: biochemical
# test-parameters: Table 1; liver mitochondria; ± SEM; read-out: IC50, liver
For each record, write down the corresponding IC50.
Show the value, then the unit it is measured in.

For CCOC(=O)C1(CCCCCCOc2ccc(Cl)cc2)CO1 (centres unmarked) [Compound A, reference compound] , what is its reported IC50?
330 nM

Query: IC50; subject: COC(=O)C1(C(F)CCCCOc2ccc(Cl)cc2)CO1 (single isomer, unassigned) [Example 2 (isomer A)]
970 nM

====

# assay-target: carnitine palmitoyl transferase in liver mitochondria (Rattus norvegicus)
# Construct: from tissue; host or cells: rat liver mitochondria
# procedure-details: Inhibition of carnitine palmitoyl transferase activity in liver mitochondria
# Format: biochemical
# test-parameters: Example 9, second (untitled) table; liver mitochondria; read-out: Inhibition of Hepatic CPTase, IC50
Structures can show the parent of a compound that is named as a salt.
Please go through the items and note down their IC50.
Give the value, in units of nM, as a plain number.

Hi! What's the reported IC50 for COC(=O)C1(C(F)(F)CCCCCOc2ccc(Cl)cc2)CO1 (stereo not drawn) [Example 7 (gem-difluoro compound)] on carnitine palmitoyl transferase in liver mitochondria (Rattus norvegicus)?
350

What is its IC50 for carnitine palmitoyl transferase in liver mitochondria (Rattus norvegicus)? Entry: O=C(O)C1(C(F)(F)CCCCCOc2ccc(Cl)cc2)CO1 (stereo not drawn) [Example 8, sodium salt]
250

For carnitine palmitoyl transferase in liver mitochondria (Rattus norvegicus), provide IC50 of CCOC(=O)C1(CCCCCCOc2ccc(Cl)cc2)CO1 (stereo not drawn) [Compound A, reference compound] please.
310

====

# assay-target: carnitine palmitoyl transferase in liver mitochondria (Rattus norvegicus, UniProt P32198)
# Construct: from tissue; host or cells: rat liver mitochondria
# procedure-details: Inhibition of carnitine palmitoyl transferase activity in liver mitochondria
# Type: biochemical
# test-parameters: Table 2 (Example 10); liver mitochondria alone; read-out: % Inhibition of Hepatic CPTase, IC50
Where a name gives a salt, the structure may show the parent alone.
observable: IC50 (nM)
Numeric answer only, unit nM assumed.

Lookup: IC50 / carnitine palmitoyl transferase in liver mitochondria (Rattus norvegicus, UniProt P32198) / O=C(O)C1(C(F)CCCCOc2ccc(Cl)cc2)CO1 (single isomer, unassigned) [Example 4, sodium salt]
500

Please tell me: IC50 of O=C(O)C1(C(F)CCCCCOc2ccc(Cl)cc2)CO1 (single isomer, unassigned) [Example 5, sodium salt] , system carnitine palmitoyl transferase in liver mitochondria (Rattus norvegicus, UniProt P32198)?
520

Request: IC50, test system carnitine palmitoyl transferase in liver mitochondria (Rattus norvegicus, UniProt P32198), entry COC(=O)C1(C(F)CCCCCOc2ccc(Cl)cc2)CO1 (single isomer, unassigned) [3 (isomer B)]
1750

Any idea what IC50 came out for COC(=O)C1(C(F)CCCCOc2ccc(Cl)cc2)CO1 (single isomer, unassigned) [Example 2 (isomer A)] on carnitine palmitoyl transferase in liver mitochondria (Rattus norvegicus, UniProt P32198)?
970

Field: IC50 (carnitine palmitoyl transferase in liver mitochondria (Rattus norvegicus, UniProt P32198)). Entry: COC(=O)C1(C(F)CCCCc2ccccc2)CO1 (single isomer, unassigned) [Example 1 (isomer A)]
1080

Short answer please: IC50, carnitine palmitoyl transferase in liver mitochondria (Rattus norvegicus, UniProt P32198), entry COC(=O)C1(C(F)CCCCCOc2ccc(Cl)cc2)CO1 (single isomer, unassigned) [3 (isomer A)]
850

Data credit: patent US4788306A
